# System: green foxtail (Setaria viridis)
# test summary: Test A preemergence soil spray, visual injury rating 0-100
# Assay type: in vivo
# run conditions: 62 g ai/ha, 10 days, 0 = no effect, 100 = complete control
Listed next: entries and their corresponding Foxtail, Green plant response rating (0-100).
API doc: respond with a numeric literal and nothing else, no unit.

CC1(C(=O)NC2CC(C(=O)O)C2)CN(c2cc(F)cc(Cl)c2)C(=O)O1 (racemic) = 90
COC(=O)C1=CCC(NC(=O)C2(C)CN(c3cc(Cl)cc(Cl)c3)C(=O)O2)C1 (stereo not drawn) = 90
COC(=O)C1CC(NC(=O)C2(C)CN(c3cc(F)cc(Cl)c3)C(=O)O2)C1 (stereo not drawn) = 90
COC(=O)C1C=CC(NC(=O)C2(C)CN(c3cc(Cl)c(F)c(Cl)c3)C(=O)O2)C1 (stereo not drawn) = 90
CC1(C(=O)NC2CC=C(C(=O)OCC(F)(F)F)C2)CN(c2cc(Cl)cc(Cl)c2)C(=O)O1 (stereo not drawn) = 90

Requested read-out: Foxtail, Green plant response rating (0-100). Entry: CC1(C(=O)NC2CC=C(C(=O)OCC(F)(F)F)C2)CN(c2cc(F)cc(Cl)c2)C(=O)O1 (stereo not drawn) 90

====

# Test system: ragweed (common ragweed, Ambrosia artemisiifolia)
# test summary: Test A postemergence application, visual injury rating 0-100
# Assay type: in vivo
# run conditions: Postemergence, 125 g ai/ha, 10 days; 0 is no effect, 100 is complete control
Listed next: entries and their corresponding Ragweed plant response rating (0 to 100 scale).
API doc: respond with a numeric literal and nothing else, no unit.

Check out these entries, answers already filled in.
CC1(C(=O)NC2CC=C(C(=O)OCC(F)(F)F)C2)CN(c2cc(Cl)cc(Cl)c2)C(=O)O1 (stereo not drawn) = 60
CC1(C(=O)NC2C=CC(C(=O)OCCS(C)(=O)=O)C2)CN(c2cc(Cl)cc(Cl)c2)C(=O)O1 (stereo not drawn) = 60

Attention now shifts to the item below.
Requested read-out: Ragweed plant response rating (0 to 100 scale). Entry: CONC(=O)C1C=CC(NC(=O)C2(C)CN(c3cc(F)cc(F)c3)C(=O)O2)C1 (stereo not drawn) 60

====

# Tested on: barnyardgrass (Echinochloa crus-galli)
# test summary: Test A postemergence application, visual injury rating 0-100
# Assay type: in vivo
# run conditions: Postemergence, 16 g ai/ha, greenhouse 10 days; 0 no effect, 100 complete control
measurement name: Barnyardgrass plant response rating (0 to 100 scale)

Check out these entries, answers already filled in.
COC(=O)C1CC(NC(=O)C2(C(F)(F)F)CN(c3cc(F)cc(F)c3)C(=O)O2)C2CC12 (stereo not drawn) = 70
C=CC1(C(=O)NC2CC(C(=O)OC)C2)CN(c2cc(F)cc(F)c2)C(=O)O1 (stereo not drawn) [Compound 173] = 80

Attention now shifts to the item below.
Requested read-out: Barnyardgrass plant response rating (0 to 100 scale). Entry: CSCCOC(=O)C1CC(NC(=O)C2(C)CN(c3cc(F)cc(F)c3)C(=O)O2)C1 (racemic) 50

====

Listed next: entries and their corresponding Barnyardgrass plant response rating (0 to 100 scale).
# System: barnyardgrass (Echinochloa crus-galli)
# test summary: Test A postemergence application, visual injury rating 0-100
# Format: in vivo
# run conditions: Postemergence, 31 g ai/ha, greenhouse 10 days; 0 no effect, 100 complete control
API doc: respond with a numeric literal and nothing else, no unit.

CC1(C(=O)NC2C=CC(C(=O)NS(=O)(=O)C3CC3)C2)CN(c2cc(F)cc(F)c2)C(=O)O1 (stereo not drawn) = 100
CC1(C(=O)NC2C=CC(C(=O)NS(=O)(=O)C(C)(C)C)C2)CN(c2cc(F)cc(F)c2)C(=O)O1 (stereo not drawn) = 80

Requested read-out: Barnyardgrass plant response rating (0 to 100 scale). Entry: CC1(C(=O)NC2CC=C(C(=O)NS(=O)(=O)C3CC3)C2)CN(c2cc(Cl)cc(Cl)c2)C(=O)O1 (stereo not drawn) 80

====

Listed next: entries and their corresponding Foxtail, Green plant response rating (0-100).
# Tested on: green foxtail (Setaria viridis)
# test summary: Test A preemergence soil spray, visual injury rating 0-100
# Format: in vivo
# run conditions: 31 g ai/ha, 10 days, 0 = no effect, 100 = complete control
API doc: respond with a numeric literal and nothing else, no unit.

Requested read-out: Foxtail, Green plant response rating (0-100). Entry: COC(=O)C1C=CC(NC(=O)C2(C)CN(c3cc(F)cc(Cl)c3)C(=O)O2)C1 (stereo not drawn) 50

Requested read-out: Foxtail, Green plant response rating (0-100). Entry: CONC(=O)C1CC(NC(=O)C2(C)CN(c3cc(F)cc(F)c3)C(=O)O2)CO1 (stereo not drawn) [Compound 40] 0

Requested read-out: Foxtail, Green plant response rating (0-100). Entry: COC(=O)C1=CCC(NC(=O)C2(C)CN(c3cc(F)cc(F)c3)C(=O)O2)C1 (single isomer, unassigned) 0

====

# Tested on: kochia (Bassia scoparia)
# test summary: Test A preemergence soil spray, visual injury rating 0-100
# Format: in vivo
# run conditions: 125 g ai/ha, 10 days, 0 = no effect, 100 = complete control
measurement name: Kochia plant response rating (0 to 100 scale)
API doc: respond with a numeric literal and nothing else, no unit.

CSCCOC(=O)C1=CCC(NC(=O)C2(C)CN(c3cc(F)cc(F)c3)C(=O)O2)C1 (centres unmarked) = 90
COC(=O)C1=CCC(NC(=O)C2(C)CN(c3cc(F)cc(F)c3)C(=O)O2)C1 (single isomer, unassigned) = 0
CCOC(=O)C1=CCC(NC(=O)C2(C)CN(c3cc(Cl)cc(Cl)c3)C(=O)O2)C1 (centres unmarked) = 90
CC1(C(=O)NC2C=CC(C(=O)OC3CCCC3)C2)CN(c2cc(F)cc(F)c2)C(=O)O1 (centres unmarked) = 90

Attention now shifts to the item below.
Requested read-out: Kochia plant response rating (0 to 100 scale). Entry: COC(=O)C1C=CC(NC(=O)C2(C)CN(c3cc(F)cc(Cl)c3)C(=O)O2)C1 (centres unmarked) 100

====

# Tested on: barnyardgrass (Echinochloa crus-galli)
# test summary: Test A postemergence application, visual injury rating 0-100
# Type: in vivo
# run conditions: Postemergence, 125 g ai/ha, 10 days; 0 is no effect, 100 is complete control
# Text: […]
measurement name: Barnyardgrass plant response rating (0 to 100 scale)
API doc: respond with a numeric literal and nothing else, no unit.

COC(=O)C1=CCC(NC(=O)C2(C)CN(c3cc(F)cc(F)c3)C(=O)O2)C1 (stereo not shown) [Compound 21] = 100
CC(C)OC(=O)C1=CCC(NC(=O)C2(C)CN(c3cc(Cl)cc(Cl)c3)C(=O)O2)C1 (stereo not shown) [Compound 70] = 90
CSCCOC(=O)C1C=CC(NC(=O)C2(C)CN(c3cc(Cl)cc(Cl)c3)C(=O)O2)C1 (stereo not shown) [Compound 69] = 90
CNC(=O)C1CCC(NC(=O)C2(C)CN(c3cc(F)cc(F)c3)C(=O)O2)C1 (stereo not shown) [Compound 14] = 0
CC(C)OC(=O)C1CCC(NC(=O)C2(C)CN(c3cc(F)cc(Cl)c3)C(=O)O2)C1 (stereo not shown) [Compound 2] = 100

Requested read-out: Barnyardgrass plant response rating (0 to 100 scale). Entry: CC1(C(=O)NC2CC=C(C(=O)NS(=O)(=O)C3CC3)C2)CN(c2cc(Cl)cc(Cl)c2)C(=O)O1 (stereo not shown) [Compound 75] 90

Requested read-out: Barnyardgrass plant response rating (0 to 100 scale). Entry: CC(C)OC(=O)C1CCC(NC(=O)C2(C)CN(c3cc(F)cc(F)c3)C(=O)O2)C1 (stereo not shown) [Compound 12] 100

====

Listed next: entries and their corresponding Foxtail, Green plant response rating (0-100).
# System: green foxtail (Setaria viridis)
# test summary: Test A postemergence application, visual injury rating 0-100
# Type: in vivo
# run conditions: 62 g ai/ha, postemergence, 10 days, 0 = no effect, 100 = complete control
API doc: respond with a numeric literal and nothing else, no unit.

CC(C)COC(=O)C1=CCC(NC(=O)C2(C)CN(c3cc(Cl)cc(Cl)c3)C(=O)O2)C1 (centres unmarked) [Compound 155] = 20
C=CC1(C(=O)NC2COC(C(=O)OC)C2)CN(c2cc(F)cc(F)c2)C(=O)O1 (centres unmarked) [Compound 171] = 90

Requested read-out: Foxtail, Green plant response rating (0-100). Entry: CC1(C(=O)NC2CC=C(C(=O)OCC(F)(F)F)C2)CN(c2cc(Cl)cc(Cl)c2)C(=O)O1 (centres unmarked) [Compound 96] 90

Requested read-out: Foxtail, Green plant response rating (0-100). Entry: COC(=O)C1C=CC(NC(=O)C2(C(F)(F)F)CN(c3cc(F)c(F)c(F)c3)C(=O)O2)C1 (mixture of isomers) [Compound 162] 80

Requested read-out: Foxtail, Green plant response rating (0-100). Entry: CC1(C(=O)NC2CC(C(=O)O)C2)CN(c2cc(F)cc(Cl)c2)C(=O)O1 (racemic) [Compound 139] 90
